Overview of reported Surface Tension when measured at 2 wt % in Water across a group of compounds:
assay: Surface tension of carboxylic acid at 2 wt % in water (Wilhelmy plate); assay type: physicochemical; settings: 2 wt % solution of the carboxylic acid in water; average of 3 samples
reported property: Surface Tension when measured at 2 wt % in Water

| compound | reported |
| --- | --- |
| O=C(O)C(O)c1ccccc1 (stereo not shown) [Mandelic Acid] | 63.7 mN/m |
| O=C(O)CCC(=O)O [Succinic Acid] | 69.8 mN/m |
| O=C(O)CC(O)C(=O)O (stereo not shown) [Malic Acid] | 71.8 mN/m |
| O=C(O)CC(O)(CC(=O)O)C(=O)O [Citric Acid] | 71.3 mN/m |
| O=C1O[C@H]([C@@H](O)CO)C(O)=C1O [Ascorbic Acid] | 72.4 mN/m |
| O=C(O)CO [Glycolic Acid] | 71.1 mN/m |
| CC(O)C(=O)O (stereo not shown) [Lactic Acid] | 63.7 mN/m |
